Data provenance: PubChem BioAssay

# System tested: Dihydroorotate dehydrogenase (quinone), mitochondrial (Plasmodium falciparum (isolate 3D7)) (UniProt Q08210)
# Sequence (Q08210 whole entry, looked up): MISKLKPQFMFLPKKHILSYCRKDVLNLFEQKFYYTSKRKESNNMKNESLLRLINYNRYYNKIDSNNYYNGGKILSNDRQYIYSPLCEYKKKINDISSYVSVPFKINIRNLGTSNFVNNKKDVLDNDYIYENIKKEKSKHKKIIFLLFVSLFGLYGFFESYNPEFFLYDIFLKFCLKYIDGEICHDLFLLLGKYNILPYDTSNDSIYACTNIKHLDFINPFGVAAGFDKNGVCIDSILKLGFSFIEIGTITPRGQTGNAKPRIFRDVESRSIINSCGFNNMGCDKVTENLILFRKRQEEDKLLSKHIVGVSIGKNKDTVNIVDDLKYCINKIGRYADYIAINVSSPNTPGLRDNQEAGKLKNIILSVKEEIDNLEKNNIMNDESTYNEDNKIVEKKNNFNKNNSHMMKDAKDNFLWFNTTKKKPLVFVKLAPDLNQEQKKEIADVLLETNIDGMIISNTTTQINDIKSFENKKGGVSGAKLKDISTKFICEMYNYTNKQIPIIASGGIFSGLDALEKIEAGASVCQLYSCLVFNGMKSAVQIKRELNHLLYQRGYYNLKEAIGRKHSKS
# Assay procedure: PfDHODH enzyme inhibitors, primary screen, biochemical, C-terminal His tag, absorbance 600 nm (AID 1175);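 further: recombinant parasite enzyme with a five histidine tag at its C terminus; test concentration not given here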
# Test settings: DCIP absorbance 600 nm, higher = more signal, called active from +8 up or from −8 down
Would you please tag the item met when its composite z-score is -1 or above, and not met when it is below?

Input line: Could you verify whether the entry CC(C)CNC(=O)[C@@H]1c2ccccc2C(=O)N(Cc2cc(C(F)(F)F)cc(C(F)(F)F)c2)[C@H]1c1ccc(CO)cc1 shows composite z-score of no less than -1?
Output line: met

Input line: How about C=CC[C@@]1(C(=O)N2CCOCC2)N=C(c2ccc(OCCCO)cc2)O[C@@H]1c1ccccc1N=[N+]=[N-] ?
Output line: met

Input line: How about C#CCN(C(/C=C/c1ccccc1)CO)C(C(=O)O)c1ccccc1 (configuration not stated) ?
Output line: not met

Input line: How about C=CCOC(=O)[C@H]1[C@@H]2C(=O)O[C@@H](c3ccccc3)[C@@H](c3ccccc3)N2[C@@H](c2ccc(OCCOC(=O)[C@@H]3C[C@@H]4C(=O)NCC(=O)N4[C@@H]3c3ccc(O)cc3)cc2)[C@]12C(=O)Nc1ccccc12 ?
Output line: met

Input line: How about CC(C)C(=C=CC[C@H](O)c1cccc(OCCO)c1)C[C@H](O)COCc1ccccc1 ?
Output line: not met

Input line: How about CC1CC/C=C\[C@H]2OC34C=CCN(Cc5ccccc5)C(=O)[C@H]3N(CCCCCO)C(=O)[C@@H]4C2C(=O)O1 (some centres not stated) ?
Output line: met

---

# Assay procedure: binders of probe aFST on microarray, primary screen, stem cell growth factor project, biochemical, small-molecule microarray, fluorescence 635/667 (AID 1086);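 further: score merges 667 nm fluorescence with signal-to-noise of each printed compound spot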
# Test settings: higher = more signal
For each of the compounds below, state its composite z-score.

Input line: Given C=CC[C@@]1(C(=O)N2CCOCC2)N=C(c2ccc(OCCCO)cc2)O[C@@H]1c1ccccc1N=[N+]=[N-] , state its recorded composite z-score.
Output line: 0.993

Input line: How about C=CCOC(=O)[C@@H]1[C@H]2C(=O)O[C@H](c3ccccc3)[C@H](c3ccccc3)N2[C@H](c2ccc(OCCOC(=O)[C@@H]3C[C@@H]4C(=O)N[C@@H](Cc5ccccc5)C(=O)N4[C@@H]3c3cccc(OCCO)c3)cc2)[C@@]12C(=O)Nc1ccc(I)cc12 ?
Output line: 0.043

Input line: How about O=C1C2C=CC(C(O)c3ccc(-c4ccccc4)s3)N(n3cnnc3)C2C(=O)N1Cc1ccccc1 (stereo not drawn) ?
Output line: 0.415

---

# System tested: Torsin-1A (Homo sapiens) (UniProt O14656)
# Sequence (O14656 whole entry, looked up): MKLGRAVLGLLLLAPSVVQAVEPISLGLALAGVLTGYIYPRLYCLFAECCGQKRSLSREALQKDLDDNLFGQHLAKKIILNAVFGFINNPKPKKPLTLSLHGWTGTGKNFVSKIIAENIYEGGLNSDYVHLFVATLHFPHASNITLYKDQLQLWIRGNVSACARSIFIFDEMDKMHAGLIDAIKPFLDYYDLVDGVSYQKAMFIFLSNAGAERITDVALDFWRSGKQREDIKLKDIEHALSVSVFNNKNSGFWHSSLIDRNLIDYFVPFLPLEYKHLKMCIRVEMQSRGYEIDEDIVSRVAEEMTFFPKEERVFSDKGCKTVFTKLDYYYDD
# Assay procedure: small-molecule binders of mutant TOR1A in lysate, primary screen, cell lysate, small-molecule microarray, COS7 lysate, 635/667 nm fluorescence (AID 1150);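 further: score pools 667 nm emission and signal to noise measuring lysate protein binding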
# Test settings: COS7 hTOR1A mutant lysate, 635 nm fluorescence, higher = more signal
Property measured: composite z-score
Lab note: record just the number, no unit beside it.

Input line: Given COc1cc(C(O)C2C=CC3C(=O)N(c4ccccc4)C(=O)C3N2Nc2ccc(C#N)cc2)cc(OC)c1OC (stereo unspecified) , state its recorded composite z-score.
Output line: 0.204

Input line: How about CC(C)c1ccc(NN2C(C(O)c3cccc(O)c3)C=CC3C(=O)N(c4ccccc4)C(=O)C32)cc1 (stereo unspecified) ?
Output line: 1.3

Input line: How about CC(C)N1C(=O)C[C@@](C(=O)NCc2ccccc2)(c2ccc([N+](=O)[O-])cc2)[C@H]1c1ccc(CO)cc1 ?
Output line: 0.529

Input line: How about CC(C)N1CC=CC23O[C@@H]4C=CCOC(=O)[C@@H]4[C@H]2C(=O)N(CCO)[C@@H]3C1=O (stereo partly specified) ?
Output line: -1.48

Input line: How about C=C(COC)C(=O)CC[C@@H](OC(=O)c1cccnc1)c1ccc(CO)o1 ?
Output line: -0.332

Input line: How about Cc1ccc(S[C@]2(C(=O)NCC(C)C)CC(=O)N(Cc3ccccc3)[C@@H]2c2ccc(CO)cc2I)cc1 ?
Output line: 0.835

Input line: How about O=C1C[C@]2(c3ccc([N+](=O)[O-])cc3)C(=O)N(CC(F)(F)F)c3cc(CO)ccc3[C@H]2N1CC12CC3CC(CC(C3)C1)C2 ?
Output line: -0.156

Input line: How about CN(C)CCCCNC(=O)[C@H]1C[C@H]2C(=O)N[C@@H](Cc3ccccc3)C(=O)N2[C@H]1c1ccc(O)cc1 ?
Output line: 0.734

Input line: How about CCCCC(O)C1C=CC2C(=O)N(C3CCCCC3)C(=O)C2N1Nc1ccc(OC)cc1 (stereo unspecified) ?
Output line: -0.001

Input line: How about Cc1cc(C)c(C(O)C2C=CC3C(=O)N(C)C(=O)C3N2Nc2ccccc2)c(C)c1 (stereo unspecified) ?
Output line: 0.738

Input line: How about [N-]=[N+]=Nc1ccccc1C[C@]1(C(=O)NCCN2CCOCC2)N=C(c2ccc(OCCCO)cc2)O[C@H]1c1ccccc1 ?
Output line: 0.749

Input line: How about Cc1ccc(S[C@]2(C(=O)O)CC(=O)N(C3Cc4ccccc4C3)[C@@H]2c2ccc(CO)cc2I)cc1 ?
Output line: -0.584

Input line: How about O=C/C=C/c1ccc(Cl)cc1 ?
Output line: -0.786

Input line: How about CC(=O)NCCCC[C@@H]1NC(=O)[C@@H]2C[C@H](C(=O)NCCCCN(C)C)[C@H](c3ccc(O)cc3)N2C1=O ?
Output line: -0.88

Input line: How about CC(C)NC(=O)[C@@]1(Cc2ccccc2I)c2ccccc2C(=O)N(Cc2ccccc2)[C@H]1c1ccc(CO)cc1 ?
Output line: -0.181

Input line: How about COc1ccc(C(=O)Nc2cccc(CN3C(=O)[C@]4(O[C@H](CC(=O)N5CCC[C@H]5CO)[C@@H]([Si](C)(C)c5ccc(OC)cc5)[C@@H]4C)c4ccccc43)c2)cc1 ?
Output line: 0.812

---

# Assay procedure: small-molecule binders of probe aInhba, primary screen, biochemical, small-molecule microarray, 635/667 nm fluorescence (AID 1148);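 further: score merges 667nm spot fluorescence with signal-to-noise for antibody binding to printed compounds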
# Test settings: higher = more signal
Property measured: composite z-score
Lab note: record just the number, no unit beside it.

Input line: Given COCCOC(=O)N1C(=O)[C@@]2(c3cc(C#CCCO)ccc31)[C@H](c1ccccc1OCCO)N1[C@H](c3ccccc3)[C@H](c3ccccc3)OC(=O)[C@H]1[C@@H]2C(=O)N1CCN(c2ncccn2)CC1 , state its recorded composite z-score.
Output line: 0.262

Input line: How about CCOC(=O)C[C@H]1[C@H](OC(=O)c2ccc(-c3ccccc3)cc2)[C@@H](NC(=O)c2ccc3ccccc3c2)c2cc(OCCCO)ccc2N1C(=O)Cc1ccc(OC)cc1 ?
Output line: -0.0954

Input line: How about COCCOC(=O)N1C(=O)[C@@]2(c3cc(C#CCC(C(=O)OC)C(=O)OC)ccc31)[C@H](c1ccccc1OCCO)N1[C@H](c3ccccc3)[C@H](c3ccccc3)OC(=O)[C@H]1[C@@H]2C(N)=O ?
Output line: 0.137

Input line: How about CN1C(=O)C2C=CC(C(O)c3ccccn3)N(Nc3ccccc3)C2C1=O (centres undefined) ?
Output line: -0.0069

Input line: How about COc1ccc(CCNC(=O)[C@@H]2c3ccccc3C(=O)N(Cc3ccc(OC(F)(F)F)cc3)[C@H]2c2ccc(CO)cc2)cc1 ?
Output line: -0.0465

Input line: How about CCC[C@@H]1C=C(C(=O)O)[C@H](c2ccc(C)cc2)N1S(=O)(=O)c1ccc(C)cc1 ?
Output line: -0.0087

Input line: How about CCOC(=O)C[C@H]1[C@H](OC(=O)c2ccccc2-c2ccccc2)[C@@H](NC(=O)c2ccc3ccccc3c2)c2cc(OCCCO)ccc2N1C(=O)c1ccc2ccccc2n1 ?
Output line: -0.0087

Input line: How about CC(C)CNC(=O)[C@@]1(c2ccc([N+](=O)[O-])cc2)CC(=O)N(CC23CC4CC(CC(C4)C2)C3)[C@@H]1c1ccc(CO)cc1 ?
Output line: -0.0442

Input line: How about [N-]=[N+]=NCc1ccccc1C[C@@]1(C(=O)N2CCOCC2)N=C(c2ccc(OCCCO)cc2)O[C@@H]1c1ccccc1CN=[N+]=[N-] ?
Output line: 0.985

Input line: How about CC(=O)C1=CCC(c2ccccc2)N(S(=O)(=O)c2ccc(C)cc2)C1 (centres undefined) ?
Output line: -0.0087

Input line: How about CC1CC/C=C\[C@H]2OC34C=CCN(Cc5ccccc5)C(=O)[C@H]3N(CCCCCO)C(=O)[C@@H]4C2C(=O)O1 (some centres undefined) ?
Output line: -0.242

Input line: How about COCCOC(=O)N1C(=O)[C@@]2(c3ccccc31)[C@H](C(=O)NC[C@H](O)c1ccccc1)[C@H]1C(=O)O[C@H](c3ccccc3)[C@H](c3ccccc3)N1[C@@H]2c1ccc(OCCO)cc1 ?
Output line: 0.0588

Input line: How about CCCCC=C[C@@H](NC(=O)c1ccco1)c1ccccc1 ?
Output line: 0.194

Input line: How about CCCN1C(=O)[C@@]2(CCC(=O)OC(C)(C)C)N=C(c3ccc(OCCCO)cc3)O[C@H]2c2ccccc21 ?
Output line: 0.0319
